# Tested on: MDA-MB-231 (Breast Carcinoma)
# procedure_details: Bliss excess, mean over the matrix (fraction); higher = more synergy
assay_metric: Bliss excess
Numbers only.

Here's what some known entries look like.
-- ask Fill blank: measured Bliss excess of the compound COc1nnc2ccc(N3CCC(c4ccc(OCCN5CCN(C)C(=O)[C@H]5C)cc4)CC3)nn12 [AZD5153] + CCN(CCO)CCCOc1ccc2c(Nc3cc(CC(=O)Nc4cccc(F)c4)[nH]n3)ncnc2c1 [AZD2811] (first compound max 1 µM, 7x7, partner max 1 µM) is ____.
-- reply -0.0353

-- ask Data request, read-out Bliss excess, for CS(=O)(=O)CCNCc1ccc(-c2ccc3ncnc(Nc4ccc(OCc5cccc(F)c5)c(Cl)c4)c3c2)o1 [Lapatinib] + C[C@@H](Oc1cc(-c2cnn(C3CCNCC3)c2)cnc1N)c1c(Cl)ccc(F)c1Cl [Crizotinib] (first compound max 10 µM, 7x7, partner max 10 µM)
-- reply -0.042

-- ask Endpoint output: Bliss excess of Cc1c2c(nn1C)CSCc1cc(n(C)n1)CSc1cc(c3ccccc3c1)OCCCc1c(C(=O)O)n(C)c3c-2c(Cl)ccc13 [AZD5991] + CCN(CCO)CCCOc1ccc2c(Nc3cc(CC(=O)Nc4cccc(F)c4)[nH]n3)ncnc2c1 [AZD2811] (first compound max 1 µM, 7x7, partner max 1 µM) . Value?
-- reply 0.0604

-- ask So what does the record say about Bliss excess for Cn1cnc2c(F)c(Nc3ccc(Br)cc3Cl)c(C(=O)NOCCO)cc21 [Selumetinib] + C=CCn1c(=O)c2cnc(Nc3ccc(N4CCN(C)CC4)cc3)nc2n1-c1cccc(C(C)(C)O)n1 [AZD1775] (first compound max 10 µM, partner max 1 µM) ?
-- reply -0.0337

Now look at this one.
-- ask Could you share which Bliss excess value was measured for C=CCn1c(=O)c2cnc(Nc3ccc(N4CCN(C)CC4)cc3)nc2n1-c1cccc(C(C)(C)O)n1 [AZD1775] + C1CN(CCC1(C(=O)N[C@@H](CCO)C2=CC=C(C=C2)Cl)N)C3=NC=NC4=C3C=CN4 [Capivasertib] (first compound max 3 µM, partner max 3 µM) ?
-- reply -0.0181

###

# System: CTV-1 (T-Lymphoblastic Leukemia)
# procedure_details: Bliss excess, mean over the matrix (fraction); higher = more synergy
I'd be grateful if you could share measured Bliss excess for these entries.

The following molecules have reported results that may help.
-- ask Enter reported Bliss excess observed with CTV-1 (T-Lymphoblastic Leukemia) for CC(=O)Nc1cccc(-n2c(=O)n(C3CC3)c(=O)c3c(Nc4ccc(I)cc4F)n(C)c(=O)c(C)c32)c1 [Trametinib] + Cc1nc(-c2cn3c(n2)-c2ccc(-c4cnn(C(C)(C)C(N)=O)c4)cc2OCC3)n(C(C)C)n1 [Taselisib] (first compound max 1 µM, 7x7, partner max 10 µM)
-- reply 0.328

-- ask # get_value(readout= Bliss excess, system= CTV-1 (T-Lymphoblastic Leukemia)) for Cc1cc2ncnn2cc1Nc1ncc2c(n1)n(C1CCOCC1)c(=O)n2C [AZD7648] + O=C(c1cc(Cc2n[nH]c(=O)c3ccccc23)ccc1F)N1CCN(C(=O)C2CC2)CC1 [Olaparib] (first compound max 10 µM, 7x7, partner max 10 µM)
-- reply 0.0056

-- ask Provide value of Bliss excess for this record tested with CTV-1 (T-Lymphoblastic Leukemia): CC1(C)CCC(CN2CCN(c3ccc(C(=O)NS(=O)(=O)c4ccc(NCC5CCOCC5)c([N+](=O)[O-])c4)c(Oc4cnc5[nH]ccc5c4)c3)CC2)=C(c2ccc(Cl)cc2)C1 [Venetoclax] + COc1cc(Nc2ncc3c(n2)-c2ccc(Cl)cc2C(c2c(F)cccc2OC)=NC3)ccc1C(=O)O [Alisertib] (first compound max 1 µM, 7x7, partner max 10 µM)
-- reply -0.0095

-- ask Request body: readout Bliss excess, system CTV-1 (T-Lymphoblastic Leukemia), query CN(CCO)CC[C@H](CSc1ccccc1)Nc1ccc(S(=O)(=O)NC(=O)c2ccc(N3CCC([C@@H](O)c4ccccc4-c4ccc(Cl)cc4)CC3)cc2)cc1S(=O)(=O)C(F)(F)F [AZD4320] + C[C@@H]1COCCN1C2=NC(=NC(=C2)C3(CC3)[S@](=N)(=O)C)C4=C5C=CNC5=NC=C4 [AZD6738] (first compound max 1 µM, 7x7, partner max 10 µM) . Return the value.
-- reply -0.0498

Each molecule below has a recorded value; state its Bliss excess.
1. Cc1c2c(nn1C)CSCc1cc(n(C)n1)CSc1cc(c3ccccc3c1)OCCCc1c(C(=O)O)n(C)c3c-2c(Cl)ccc13 [AZD5991] + Cc1cc2ncnn2cc1Nc1ncc2c(n1)n(C1CCOCC1)c(=O)n2C [AZD7648] (first compound max 1 µM, 7x7, partner max 10 µM)
2. CC(=O)c1c(C)c2cnc(Nc3ccc(N4CCNCC4)cn3)nc2n(C2CCCC2)c1=O [Palbociclib] + Cn1cnc2c(F)c(Nc3ccc(Br)cc3Cl)c(C(=O)NOCCO)cc21 [Selumetinib] (first compound max 10 µM, 7x7, partner max 10 µM)

-- reply
-0.0169
0.0496

###

# Tested on: JiyoyeP-2003 (Burkitt's Lymphoma)
# procedure_details: Bliss excess, mean over the matrix (fraction); higher = more synergy
assay_metric: Bliss excess
One number for each entry.

Please look at the items below and tell me Bliss excess for each one, in order.
1. COc1nnc2ccc(N3CCC(c4ccc(OCCN5CCN(C)C(=O)[C@H]5C)cc4)CC3)nn12 [AZD5153] + CC1(C)CCC(CN2CCN(c3ccc(C(=O)NS(=O)(=O)c4ccc(NCC5CCOCC5)c([N+](=O)[O-])c4)c(Oc4cnc5[nH]ccc5c4)c3)CC2)=C(c2ccc(Cl)cc2)C1 [Venetoclax] (first compound max 1 µM, 7x7, partner max 1 µM)
2. CN(CCO)CC[C@H](CSc1ccccc1)Nc1ccc(S(=O)(=O)NC(=O)c2ccc(N3CCC([C@@H](O)c4ccccc4-c4ccc(Cl)cc4)CC3)cc2)cc1S(=O)(=O)C(F)(F)F [AZD4320] + C1CN(CCC1(C(=O)N[C@@H](CCO)C2=CC=C(C=C2)Cl)N)C3=NC=NC4=C3C=CN4 [Capivasertib] (first compound max 1 µM, 7x7, partner max 3 µM)
3. CC(=O)Nc1cccc(-n2c(=O)n(C3CC3)c(=O)c3c(Nc4ccc(I)cc4F)n(C)c(=O)c(C)c32)c1 [Trametinib] + Cc1nc(-c2cn3c(n2)-c2ccc(-c4cnn(C(C)(C)C(N)=O)c4)cc2OCC3)n(C(C)C)n1 [Taselisib] (first compound max 1 µM, 7x7, partner max 10 µM)
4. NC1(C(=O)N[C@@H](CCO)c2ccc(Cl)cc2)CCN(c2ncnc3[nH]ccc23)CC1 [Capivasertib] + Cn1cnc2c(F)c(Nc3ccc(Br)cc3Cl)c(C(=O)NOCCO)cc21 [Selumetinib] (first compound max 10 µM, 7x7, partner max 10 µM)
5. CC1(C)CCC(CN2CCN(c3ccc(C(=O)NS(=O)(=O)c4ccc(NCC5CCOCC5)c([N+](=O)[O-])c4)c(Oc4cnc5[nH]ccc5c4)c3)CC2)=C(c2ccc(Cl)cc2)C1 [Venetoclax] + CN(C)CCCOc1ccc(-c2ccc3ncc4c(c3c2)n(C2CCOCC2)c(=O)n4C)cn1 [AZD0156] (first compound max 1 µM, 7x7, partner max 1 µM)

-- reply
1. -0.0302
2. 0.0157
3. 0.108
4. 0.101
5. -0.0128

###

# System: CTV-1 (T-Lymphoblastic Leukemia)
# procedure_details: combination Emax (second highest fraction inhibited in the dose matrix, 72 h); higher = more inhibition; extreme values may be limits of the assay
Kindly state combination Emax for each of the entries shown.
Give bare numbers.

# count of solved cases: 2
-- ask API: value(readout= combination Emax, system= CTV-1 (T-Lymphoblastic Leukemia), query= C=CCn1c(=O)c2cnc(Nc3ccc(N4CCN(C)CC4)cc3)nc2n1-c1cccc(C(C)(C)O)n1 [AZD1775] + O=C(c1cc(Cc2n[nH]c(=O)c3ccccc23)ccc1F)N1CCN(C(=O)C2CC2)CC1 [Olaparib] (first compound max 1 µM, partner max 10 µM) )
-- reply 0.977

-- ask Kindly state the measured combination Emax obtained for CC1(C)CCC(CN2CCN(c3ccc(C(=O)NS(=O)(=O)c4ccc(NCC5CCOCC5)c([N+](=O)[O-])c4)c(Oc4cnc5[nH]ccc5c4)c3)CC2)=C(c2ccc(Cl)cc2)C1 [Venetoclax] + C[C@@H](Nc1cc(F)cc(F)c1)c1cc(C(=O)N(C)C)cc2c(=O)cc(N3CCOCC3)oc12 [AZD8186] (first compound max 1 µM, 7x7, partner max 3 µM) with CTV-1 (T-Lymphoblastic Leukemia).
-- reply 0.372

Moving on to another compound below.
-- ask What is its combination Emax for CTV-1 (T-Lymphoblastic Leukemia)? Entry: NC1(C(=O)N[C@@H](CCO)c2ccc(Cl)cc2)CCN(c2ncnc3[nH]ccc23)CC1 [Capivasertib] + C[C@@H]1COCCN1C2=NC(=NC(=C2)C3(CC3)[S@](=N)(=O)C)C4=C5C=CNC5=NC=C4 [AZD6738] (first compound max 10 µM, 7x7, partner max 10 µM)
-- reply 0.902
